tested on: off-target integration sites; experiment: Off-target oligo insertion based assay in primary human hepatocytes (Table 30); format: cell-based; details: TTR sgRNAs in PHH, 100 ng Cas9 mRNA, 25 nM sgRNA, 12.5 nM donor oligo
Strand notation (5' to 3'): a small letter for the sugar, then the base; units joined by * are phosphorothioate-linked, units joined directly phosphodiester-linked; [ ] holds rarer units or linkages, { } end groups; capitals alone tell only the bases. m = 2'-O-methyl; r = 2'-OH (RNA)
measurement-type: # Sites in PHH
Form rule: numeric answer, no unit written next to it.

What does the record list as # Sites in PHH for G000501: TTR sgRNA modified sequence, Human, SEQ ID No. 108; guide sequence of CR005300 (nucleic acid) guide: mU*mC*mA*rCrArGrArArArCrArCrUrCrArCrCrGrUrArGrUrUrUrUrArGrAmGmCmUmAmGmAmAmAmUmAmGmCrArArGrUrUrArArArArUrArArGrGrCrUrArGrUrCrCrGrUrUrArUrCrAmAmCmUmUmGmAmAmAmAmAmGmUmGmGmCmAmCmCmGmAmGmUmCmGmGmUmGmCmU*mU*mU*mU ?
0

What does the record list as # Sites in PHH for G000491: TTR sgRNA modified sequence, Human, SEQ ID No. 98; guide sequence of CR003338 (nucleic acid) guide: mA*mU*mA*rCrCrArGrUrCrCrArGrCrArArGrGrCrArGrGrUrUrUrUrArGrAmGmCmUmAmGmAmAmAmUmAmGmCrArArGrUrUrArArArArUrArArGrGrCrUrArGrUrCrCrGrUrUrArUrCrAmAmCmUmUmGmAmAmAmAmAmGmUmGmGmCmAmCmCmGmAmGmUmCmGmGmUmGmCmU*mU*mU*mU ?
7

What does the record list as # Sites in PHH for G000572: TTR sgRNA modified sequence, Human, SEQ ID No. 113; guide sequence of CR003385 (nucleic acid) guide: mC*mC*mC*rCrUrArCrUrCrCrUrArUrUrCrCrArCrCrArGrUrUrUrUrArGrAmGmCmUmAmGmAmAmAmUmAmGmCrArArGrUrUrArArArArUrArArGrGrCrUrArGrUrCrCrGrUrUrArUrCrAmAmCmUmUmGmAmAmAmAmAmGmUmGmGmCmAmCmCmGmAmGmUmCmGmGmUmGmCmU*mU*mU*mU ?
2
